Test system: HEK293
Experiment Notes: Cytotoxicity against HEK293 cells assessed as reduction in cell viability after 48 hrs by Alamar Blue reporter assay
Applied Conditions: human, hek293, 48 h
Observation Type: CC50 (µM)
Note: unit µM is implicit; provide only the numeric part.

Compound	Observation Type	Reading Unit	Value Observed
O=C(Nc1ccc(Sc2nc3ccccc3s2)cc1)c1ccccc1O	CC50	µM	74
O=C(Nc1ccccc1)c1cc(Br)cc(Br)c1O	CC50	µM	34
O=C(Nc1cccc(Cl)c1)c1cc(Br)cc(Br)c1O	CC50	µM	18
O=C(Nc1ccc(Sc2nc3ccccc3s2)cc1)c1cccc(Br)c1	CC50	µM	74
O=C(Nc1ccc(Sc2nc3ccccc3s2)c(Cl)c1)c1cc(Br)ccc1O	CC50	µM	45
Cc1cc(C(C#N)c2ccc(Cl)cc2)c(Cl)cc1NC(=O)c1cc(I)cc(I)c1O (stereo not drawn)	CC50	µM	75

# ---- query compound ----
## Task Please report the recorded CC50 for O=C(Nc1ccccc1)c1cccc(Br)c1O .
## Result 82

---

Let's look at some compounds and their measured EC50.
Test system: Staphylococcus aureus
Experiment Notes: Antibacterial activity against methicillin-resistant Staphylococcus aureus ATCC BAA-44 after 6 to 8 hrs by bacterial proliferation assay
Type: functional, organism-based
Applied Conditions: Staphylococcus aureus, ATCC BAA-44

Molecule	EC50
O=C(Nc1ccc(Sc2nc3ccccc3s2)c(Cl)c1)c1cc(Br)cc(Br)c1	> 100 µM
COc1ccccc1C(=O)Nc1cccc(Cl)c1	> 100 µM
CC1(C)S[C@@H]2[C@H](NC(=O)[C@H](N)c3ccccc3)C(=O)N2[C@H]1C(=O)O	> 100 µM

# ---- query compound ----
## Task # returns recorded EC50 (system: Staphylococcus aureus) for O=C(Nc1cccc(Cl)c1)c1cc(Br)ccc1O
## Result 0.53 µM

---

Target Or System: E. coli GroEL/ES (Escherichia coli, UniProt P0A6F5)
Sequence (P0A6F5 whole entry, looked up): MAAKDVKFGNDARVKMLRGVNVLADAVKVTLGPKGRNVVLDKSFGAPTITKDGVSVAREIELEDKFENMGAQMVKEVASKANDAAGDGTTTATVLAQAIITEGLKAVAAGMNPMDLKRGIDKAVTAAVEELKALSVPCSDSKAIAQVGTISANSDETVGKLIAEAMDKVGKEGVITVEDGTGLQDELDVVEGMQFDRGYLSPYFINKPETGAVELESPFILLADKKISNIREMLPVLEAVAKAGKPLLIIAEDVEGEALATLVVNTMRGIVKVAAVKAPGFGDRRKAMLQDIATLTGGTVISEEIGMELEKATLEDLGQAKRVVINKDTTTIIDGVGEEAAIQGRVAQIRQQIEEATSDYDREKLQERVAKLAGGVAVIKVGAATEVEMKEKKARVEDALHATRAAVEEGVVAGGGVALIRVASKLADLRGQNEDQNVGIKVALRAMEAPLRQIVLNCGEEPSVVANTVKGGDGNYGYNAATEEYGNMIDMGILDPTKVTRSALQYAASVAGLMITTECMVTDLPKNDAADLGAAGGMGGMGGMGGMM
Experiment Notes: Inhibition of Escherichia coli GroEL expressed in Escherichia coli DH5alpha/Escherichia coli GroES expressed in Escherichia coli BL21 (DE3) assessed as reduction in GroEL/GroES-mediated denatured rhodanese refolding after 45 mins by spectrometric analysis
Let's look at some compounds and their measured IC50.

// solved cases for IC50 follow
Compound	Value Observed
O=C(Nc1ccc(Sc2nc3ccccc3s2)cc1)c1cccc(Br)c1	> 100 µM
O=C(Nc1ccccc1)c1cccc(Br)c1	> 100 µM
O=C(Nc1cccc(Cl)c1)c1cc(Br)ccc1O	> 100 µM
CO[C@H]1/C=C/O[C@@]2(C)Oc3c(C)c(O)c4c(O)c(c(/C=N/N5CCN(C)CC5)c(O)c4c3C2=O)NC(=O)/C(C)=C\C=C\[C@H](C)[C@H](O)[C@@H](C)[C@@H](O)[C@@H](C)[C@H](OC(C)=O)[C@@H]1C [RIFAMPIN]	> 100 µM

## Task Please report the recorded IC50 for O=C(Nc1ccccc1)c1cc(Br)cc(Br)c1 .
## Result > 100 µM

---

Target Or System: E. coli GroEL/ES (Escherichia coli, UniProt P0A6F5)
Experiment Notes: Inhibition of Escherichia coli GroEL expressed in Escherichia coli DH5alpha/Escherichia coli GroES expressed in Escherichia coli BL21 (DE3) assessed as reduction in GroEL/GroES-mediated denatured rhodanese refolding after 45 mins by spectrometric analysis
Observation Type: IC50

// solved cases for IC50 follow
Compound	Value Observed
O=C(Nc1ccccc1)c1cc(Br)cc(Br)c1O [METABROMSALAN]	> 100 µM
O=C(Nc1ccc(Sc2nc3ccccc3s2)cc1)c1cc(Br)cc(Br)c1	> 100 µM
O=C(Nc1ccc(Sc2nc3ccccc3s2)c(Cl)c1)c1cccc(Br)c1	> 100 µM

# ---- query compound ----
## Task Please report the recorded IC50 for O=C(Nc1ccc(Sc2nc3ccccc3s2)c(Cl)c1)c1cc(Br)cc(Br)c1O .
## Result 1.5 µM

---

Experiment Notes: Cytotoxicity against human THLE3 cells assessed as reduction in cell viability after 48 hrs by Alamar Blue reporter assay
Applied Conditions: 48 h
Observation Type: CC50 (µM)
Note: unit µM is implicit; provide only the numeric part.

// solved cases for CC50 follow
Compound	Observation Type	Value Observed
O=C(Nc1ccc(Sc2nc3ccccc3s2)c(Cl)c1)c1ccccc1O	CC50	34
O=C(Nc1ccc(Sc2nc3ccccc3s2)c(Cl)c1)c1cccc(Br)c1	CC50	88
O=C(Nc1cccc(Cl)c1)c1cc(Br)cc(Br)c1	CC50	45
O=C(Nc1ccccc1)c1ccccc1O [SALICYLANILIDE]	CC50	68

## Task Please report the recorded CC50 for O=C(Nc1cccc(Cl)c1)c1cc(Br)ccc1O .
## Result 4.1

## Task Moving on to the next compound: O=C(Nc1ccc(Sc2nc3ccccc3s2)c(Cl)c1)c1cc(Br)cc(Br)c1O
## Result 14

## Task Moving on to the next compound: O=C(Nc1ccc(Sc2nc3ccccc3s2)cc1)c1cc(Br)cc(Br)c1O
## Result 20

---

Tested on: Pseudomonas aeruginosa
Experiment Notes: Antibacterial activity against Pseudomonas aeruginosa ATCC 10145 after 24 hrs by bacterial proliferation assay
Type: functional, organism-based
Applied Conditions: ATCC 10145, 24 h
Observation Type: EC50

## Task Please report the recorded EC50 for COc1c(Br)cccc1C(=O)Nc1ccc(Sc2nc3ccccc3s2)c(Cl)c1 .
## Result > 100 µM

---

Test system: Staphylococcus aureus
Experiment Notes: Antibacterial activity against Staphylococcus aureus ATCC 25923 after 6 to 8 hrs by bacterial proliferation assay
Type: functional, organism-based
Observation Type: pEC50
FYI, pEC50 means -log10 of a concentration in mol per litre.

// solved cases for pEC50 follow
Compound	Target Or System	pEC50
O=C(Nc1cccc(Cl)c1)c1ccccc1O	Staphylococcus aureus	5.51
CN[C@H](CC(C)C)C(=O)N[C@H]1C(=O)N[C@@H](CC(N)=O)C(=O)N[C@H]2C(=O)N[C@H]3C(=O)N[C@H](C(=O)N[C@H](C(=O)O)c4cc(O)cc(O)c4-c4cc3ccc4O)[C@H](O)c3ccc(c(Cl)c3)Oc3cc2cc(c3O[C@@H]2O[C@H](CO)[C@@H](O)[C@H](O)[C@H]2O[C@H]2C[C@](C)(N)[C@H](O)[C@H](C)O2)Oc2ccc(cc2Cl)[C@H]1O [VANCOMYCIN]	Staphylococcus aureus	6.17

## Task Please report the recorded pEC50 for Cc1cc(C(C#N)c2ccc(Cl)cc2)c(Cl)cc1NC(=O)c1cc(I)cc(I)c1O (stereo not given) [CLOSANTEL] .
## Result 6.33

## Task Moving on to the next compound: O=C(Nc1ccc(Sc2nc3ccccc3s2)c(Cl)c1)c1ccccc1
## Result 4.37

---

Tested on: Staphylococcus aureus
Experiment Notes: Antibacterial activity against methicillin-resistant Staphylococcus aureus ATCC BAA-44 after 6 to 8 hrs by bacterial proliferation assay
Type: functional, organism-based
Applied Conditions: Staphylococcus aureus, ATCC BAA-44
Let's look at some molecules and their measured EC50.

// solved cases for EC50 follow
Molecule	EC50
O=C(Nc1ccccc1)c1ccccc1O [SALICYLANILIDE]	51 µM
O=C(Nc1cccc(Cl)c1)c1ccccc1	> 100 µM
CO[C@H]1/C=C/O[C@@]2(C)Oc3c(C)c(O)c4c(O)c(c(/C=N/N5CCN(C)CC5)c(O)c4c3C2=O)NC(=O)/C(C)=C\C=C\[C@H](C)[C@H](O)[C@@H](C)[C@@H](O)[C@@H](C)[C@H](OC(C)=O)[C@@H]1C	0.23 µM

# ---- query molecule ----
## Task Please report the recorded EC50 for COc1c(Br)cc(Br)cc1C(=O)Nc1ccc(Sc2nc3ccccc3s2)cc1 .
## Result > 100 µM

---

Test system: Staphylococcus aureus
Experiment Notes: Antibacterial activity against Staphylococcus aureus ATCC 25923 after 6 to 8 hrs by bacterial proliferation assay
Assay type: functional, organism-based
Label 1 (yes) when EC50 is strictly below 1000 nM; at or above that, label 0 (no).

## Task Could you please tell me whether EC50 recorded for O=C(Nc1ccc(Sc2nc3ccccc3s2)cc1)c1cc(Br)cc(Br)c1 is less than 1000 nM?
## Result 0 (no)

## Task Moving on to the next molecule: O=C(Nc1ccccc1)c1cc(Br)cc(Br)c1O
## Result 0 (no)

## Task Moving on to the next molecule: O=C(Nc1cccc(Cl)c1)c1cccc(Br)c1O
## Result 0 (no)

## Task Moving on to the next molecule: O=C(Nc1cccc(Cl)c1)c1cc(Br)ccc1O
## Result 1 (yes)

## Task Moving on to the next molecule: O=C(Nc1cccc(Cl)c1)c1ccccc1
## Result 0 (no)

## Task Moving on to the next molecule: O=C(Nc1ccccc1)c1cccc(Br)c1
## Result 0 (no)

## Task Moving on to the next molecule: O=C(Nc1ccc(Sc2nc3ccccc3s2)cc1)c1cc(Br)cc(Br)c1O
## Result 1 (yes)

## Task Moving on to the next molecule: O=C(Nc1cccc(Cl)c1)c1cc(Br)cc(Br)c1
## Result 0 (no)

## Task Moving on to the next molecule: COc1ccccc1C(=O)Nc1ccc(Sc2nc3ccccc3s2)c(Cl)c1
## Result 0 (no)

## Task Moving on to the next molecule: COc1c(Br)cc(Br)cc1C(=O)Nc1ccc(Sc2nc3ccccc3s2)c(Cl)c1
## Result 0 (no)

## Task Moving on to the next molecule: O=C(Nc1ccccc1)c1cc(Br)ccc1O
## Result 0 (no)

## Task Moving on to the next molecule: O=C(Nc1ccc(Sc2nc3ccccc3s2)cc1)c1ccccc1
## Result 0 (no)
